Attribution: paper PMC10390775

Test: Pharmacokinetics of evacetrapib in plasma, liver and brain after a single tail vein injection (UHPLC-MS-qTOF)
Format: in vivo, hCETPtg mice (C57BL/6J background)
Details: male, hCETPtg (C57BL/6J background), mouse, iv; plasma, 120 mg/kg BW i.v.; read-out: MRT (mean residence time)
Property Name: MRT (h)
Give your result in h as a bare value.

In: Can you share its MRT? I mean this compound: `Cc1cc(C)c2c(c1)[C@@H](N(Cc1cc(C(F)(F)F)cc(C(F)(F)F)c1)c1nnn(C)n1)CCCN2C[C@H]1CC[C@H](C(=O)O)CC1`
Out: 1.6

====

Assay: Pharmacokinetics of evacetrapib in plasma, liver and brain after a single tail vein injection (UHPLC-MS-qTOF)
Type: in vivo, hCETPtg mice (C57BL/6J background)
Conditions: male, hCETPtg (C57BL/6J background), mouse, plasma, iv, 40 mg/kg, plasma, 40 mg/kg BW i.v.; read-out: Kβ (elimination rate constant) (converted)
Property Name: k el (s⁻¹)
Quick note: give the figure in s⁻¹, leave out the unit.

In: Bench note: what k el did `Cc1cc(C)c2c(c1)[C@@H](N(Cc1cc(C(F)(F)F)cc(C(F)(F)F)c1)c1nnn(C)n1)CCCN2C[C@H]1CC[C@H](C(=O)O)CC1` show?
Out: 0.000111

====

Experiment: Pharmacokinetics of evacetrapib in plasma, liver and brain after a single tail vein injection (UHPLC-MS-qTOF)
Type: in vivo, hCETPtg mice (C57BL/6J background)
Details: male, hCETPtg (C57BL/6J background), mouse, iv; brain, 120 mg/kg BW i.v.; read-out: MRT (mean residence time)
Property Name: MRT (h)
Answer format: numeric, h implied, no suffix.

In: Would you kindly share the measured MRT for Cc1cc(C)c2c(c1)[C@@H](N(Cc1cc(C(F)(F)F)cc(C(F)(F)F)c1)c1nnn(C)n1)CCCN2C[C@H]1CC[C@H](C(=O)O)CC1 [evacetrapib] ?
Out: 3.4

====

Test: Pharmacokinetics of evacetrapib in plasma, liver and brain after a single tail vein injection (UHPLC-MS-qTOF)
Format: in vivo, hCETPtg mice (C57BL/6J background)
Conditions: male, hCETPtg (C57BL/6J background), mouse, brain, iv; 120 mg/kg BW i.v., accounting for residual blood; read-out: Tissue penetration ratio (AUC brain / AUC plasma)
Property Name: Kp

In: For `Cc1cc(C)c2c(c1)[C@@H](N(Cc1cc(C(F)(F)F)cc(C(F)(F)F)c1)c1nnn(C)n1)CCCN2C[C@H]1CC[C@H](C(=O)O)CC1` , what is its reported Kp?
Out: 0.13

====

Assay: Pharmacokinetics of evacetrapib in plasma, liver and brain after a single tail vein injection (UHPLC-MS-qTOF)
Type: in vivo, hCETPtg mice (C57BL/6J background)
Settings: male, hCETPtg (C57BL/6J background), mouse, liver, iv, 40 mg/kg, liver, 40 mg/kg BW i.v.; read-out: Kβ (elimination rate constant) (converted)
Property Name: k el (s⁻¹)
Just the number please, in s⁻¹, no unit attached.

In: Please give the measured k el for this compound: `Cc1cc(C)c2c(c1)[C@@H](N(Cc1cc(C(F)(F)F)cc(C(F)(F)F)c1)c1nnn(C)n1)CCCN2C[C@H]1CC[C@H](C(=O)O)CC1`
Out: 5.56e-05
